IC50 tested on human EGFR (Homo sapiens, UniProt P00533): recorded values
Sequence (P00533 672-1210): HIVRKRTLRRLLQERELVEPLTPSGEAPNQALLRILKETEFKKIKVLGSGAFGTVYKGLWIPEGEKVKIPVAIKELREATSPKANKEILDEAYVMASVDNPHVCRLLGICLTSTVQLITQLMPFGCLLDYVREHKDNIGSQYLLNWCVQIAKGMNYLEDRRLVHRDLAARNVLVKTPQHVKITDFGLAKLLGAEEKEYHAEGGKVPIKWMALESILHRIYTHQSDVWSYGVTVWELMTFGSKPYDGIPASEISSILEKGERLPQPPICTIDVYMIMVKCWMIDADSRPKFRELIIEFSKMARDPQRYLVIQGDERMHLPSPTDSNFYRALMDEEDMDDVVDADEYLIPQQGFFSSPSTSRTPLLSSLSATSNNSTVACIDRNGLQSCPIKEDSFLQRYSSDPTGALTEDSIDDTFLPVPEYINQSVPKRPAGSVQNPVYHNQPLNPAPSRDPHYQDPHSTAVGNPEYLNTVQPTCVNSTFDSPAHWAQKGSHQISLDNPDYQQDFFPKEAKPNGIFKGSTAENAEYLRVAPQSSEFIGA

Sample answers from the record:
Q: Which IC50 value belongs to C[C@@H](Nc1ncnc2[nH]c(-c3ccc(C(=O)NCCNCCCCCCC(=O)NO)cc3)cc12)c1ccccc1 [Compound 31] ?
Result: < 100 nM

Q: Same for O=C(CCCCCCOc1ccc(-c2cc3c(NCc4ccccc4)ncnc3[nH]2)cc1)NO [Compound 38]
Result: 100 to 1000 nM

Q: How about C[C@@H](Nc1ncnc2[nH]c(-c3ccc(OCC(=O)NO)cc3)cc12)c1ccccc1 [Compound 17] ?
Result: < 100 nM

Q: Moving on to C[C@@H](Nc1ncnc2[nH]c(-c3ccc(CN4CCN(CCCC(=O)NO)CC4)cc3)cc12)c1ccccc1 [Compound 13]
Result: < 100 nM

Q: Input C[C@@H](Nc1ncnc2[nH]c(-c3ccc(CN4CCN(CCCCC(=O)NO)CC4)cc3)cc12)c1ccccc1 [Compound 14]
Result: < 100 nM

Give one value of IC50 per listed compound.
1. C[C@@H](Nc1ncnc2[nH]c(-c3ccc(NC(=O)CCC(=O)NO)cc3)cc12)c1ccccc1 [Compound 24]
2. C[C@@H](Nc1ncnc2[nH]c(-c3ccc(CNCc4ccc(/C=C/C(=O)NO)cc4)cc3)cc12)c1ccccc1 [Compound 45]
3. O=C(NO)c1ccc(-c2cc3c(NCc4ccccc4)ncnc3[nH]2)cc1 [Compound 40]
4. C[C@@H](Nc1ncnc2[nH]c(-c3ccc(C(=O)NCCNCCC(=O)NO)cc3)cc12)c1ccccc1 [Compound 29]
5. C[C@@H](Nc1ncnc2[nH]c(-c3ccc(NCCCCCCC(=O)NO)cc3)cc12)c1ccccc1 [Compound 67]
6. O=C(CCCCCN1CCN(Cc2ccc(-c3cc4c(NCc5ccccc5)ncnc4[nH]3)cc2)CC1)NO [Compound 36]

Result:
1: < 100 nM; 2: > 10000 nM; 3: < 100 nM; 4: < 100 nM; 5: < 100 nM; 6: 100 to 1000 nM

Q: Any idea what IC50 was measured for C[C@@H](Nc1ncnc2[nH]c(-c3ccc(OCCCCCC(=O)NO)cc3)cc12)c1ccccc1 [Compound 21] ?
Result: < 100 nM
